- Tested on: HOP-92 NSCLC
- Assay Overview: NCI tumour cell line growth inhibition, 48 h; in the data active means GI50 below about 0.43 µM; inactive means the rest
Where a SMILES comes first, the peptide text is derived from it. The star is where a group is joined. Boc = CC(C)(C)OC(=O)*; OcHex = C1CCC(O*)CC1
Lab note: assign the record to one of active, inactive

Examples from the recorded data:
# Compound, Test Target, Group Label
rows = [
    ("CCCCCCCCCCCC[C@@H](O)[C@H]1CC[C@H]([C@H](O)CC[C@H](O)[C@@H]2CC[C@@H](CCCCCCCC3=C[C@H](C)OC3=O)O2)O1", "HOP-92 NSCLC", "inactive"),
    ("CCCCCCCCCCCCCCNC(=O)Nc1ccc(Cl)c(Cl)c1", "HOP-92 NSCLC", "inactive"),
    ("N#CC(C#N)=C/C=C(\\Sc1ccc(Cl)cc1)c1ccc(F)cc1", "HOP-92 NSCLC", "inactive"),
    ("C=C(CN1CCc2[nH]c3ccc(F)cc3c2C1)c1ccc(C(=O)Nc2ccccc2N)cc1", "HOP-92 NSCLC", "inactive"),
    ("COc1ccc(/C=C2\\CCC/C(=C\\c3ccc(OC)c(OC)c3)C2=O)cc1OC", "HOP-92 NSCLC", "inactive"),
    ("CC(C)CC(NC(=O)OC(C)(C)C)C(=O)NC(CCC(=O)OC1CCCCC1)C(N)=O (stereo not drawn) (Boc-Leu-Glu(OcHex)-NH2; configuration not given here)", "HOP-92 NSCLC", "inactive"),
    ("COc1cc(/C=C/c2cc(/C=C/c3ccc(O)c(OC)c3)n(C(=O)c3ccccc3Br)n2)ccc1O", "HOP-92 NSCLC", "inactive"),
    ("ClCCOCCn1cnc2c(Cl)nc(Cl)nc21", "HOP-92 NSCLC", "inactive"),
]

Qu. Recorded test call requested for O=C(Nc1ccc(OC(F)(F)Cl)cc1)c1cnc(N2CC[C@@H](O)C2)c(-c2ccn[nH]2)c1
Ans. inactive

Qu. Recorded test call requested for COc1ccc(C(O)c2cc3c(N)c(C(=O)Nc4cccc5ccccc45)sc3nc2C)cc1 (stereo not given)
Ans. inactive

Qu. Recorded test call requested for CSc1nc2nc(-c3ccccc3)c(C)c-2c2n1C(C)C(=O)N2 (stereo not given)
Ans. inactive

Qu. Recorded test call requested for C(=Nc1nc(SCc2ccccc2)nc2[nH]ncc12)c1cccs1
Ans. inactive

Qu. Recorded test call requested for CC[C@H](C)[C@H](NC(=O)[C@H]1CCCCN1C)C(=O)N(C)[C@H](C[C@@H](OC(C)=O)c1nc(C(=O)NC23CC(C(=O)OC)(C2)C3)cs1)C(C)C
Ans. active

Qu. Recorded test call requested for CCN(CC)c1ccc2nc3ccc(=[N+](CC)CC)cc-3oc2c1
Ans. inactive

Qu. Recorded test call requested for OCC1CC[N-]CC1.OCC1CC[N-]CC1.[Cl][Pt+2]([Cl])([Cl])[Cl]
Ans. inactive

---

- Test system: OVCAR-3 ovarian
- Assay Overview: NCI tumour cell line growth inhibition, 48 h
The molecules listed here are annotated with their TGI.
Only the number, expressed in µM, is required.

Some solved cases for reference:
# Molecule, TGI / µM
measured = [
    ("C#Cc1ccc(-n2c(/C=C/c3ccc(O)cc3)nc3ncccc3c2=O)cc1", 5.69),
    ("COCCN(Cc1ccc(F)cc1)c1ccc(CO)c(Cl)c1", 15.4),
    ("CCN(CC)CCNc1ccc([N+](=O)[O-])c2nc3ccc(OC)cc3c(NCCN(CC)CC)c12", 4.95),
]

Qu. What value of TGI on OVCAR-3 ovarian does COc1cc(C(=O)/C=C/c2cccc(Nc3ccnc4cc(Cl)ccc34)c2)cc(OC)c1OC have?
Ans. 1.39

Qu. What value of TGI on OVCAR-3 ovarian does CCN(CC)CCNc1ccc2ncn3c4ccc(O)cc4c(=O)c1c23 have?
Ans. 13.6

---

- System: MALME-3M melanoma
- Assay Overview: NCI tumour cell line growth inhibition, 48 h
Measure: TGI (µM)
Only the number, expressed in µM, is required.

Some solved cases for reference:
# Molecule, TGI / µM
data = [
    ("CCOC(=O)/C(=C/c1ccccn1)C(=O)c1ccccc1", 27.3),
    ("CC(C)(CN1CCCCC1)C(=O)/C=C/c1ccc(Br)cc1", 17.4),
]

Please look at the following compound next.
Qu. Report TGI for N#CC(C#N)=C/C=C(\Sc1ccc(Cl)cc1)c1ccc(F)cc1 please.
Ans. 6.28

---

- Tested on: COLO 205 colon
- Assay Overview: NCI tumour cell line growth inhibition, 48 h; in the data active = GI50 below about 0.43 µM; inactive = the rest
Lab note: assign the record to one of class 1 (active), class 0 (inactive)

# Compound, Group Label
rows = [
    ("CCCCS(=O)c1sc2nc(-c3cccs3)cc(-c3ccccc3)c2c1N (stereo not drawn)", "class 0"),
]

Qu. Recorded test call requested for CC(=O)Oc1ccc(C2=Cc3ccc(OC(C)=O)cc3OC2C)cc1 (stereo not drawn)
Ans. class 0

Qu. Recorded test call requested for Cc1cccc(Cn2cc(CO)c3cnccc32)c1
Ans. class 0

Qu. Recorded test call requested for CC(C)[C@@H]1CC[C@]2(CO2)[C@@H]2C(=O)OCC(C(=O)O)=C[C@H]21
Ans. class 0

Qu. Recorded test call requested for CCSCC1CC(O)(c2ccccc2)C(c2ccccc2)C(c2ccc(F)cc2)O1 (stereo not drawn)
Ans. class 0

Qu. Recorded test call requested for CCC(c1ccccc1)c1noc(CCN(CC)CC)n1 (stereo not drawn)
Ans. class 0

Qu. Recorded test call requested for [O]=[V]([OH])([OH])[OH]
Ans. class 0

---

The molecules listed here are annotated with their TGI.
- System: MOLT-4 leukemia
- Assay Overview: NCI tumour cell line growth inhibition, 48 h

Some solved cases for reference:
# Molecule, Measure, Result
rows = [
    ("CCCCS(=O)c1sc2nc(-c3cccs3)cc(-c3ccccc3)c2c1N (stereo not given)", "TGI", "> 62.6 µM"),
    ("COc1cc(/C=C2\\NC(=O)C(Cc3cc(OC)c(OC)c(C)c3OC)N(C(C)=O)C2=O)c(OC)c(C)c1OC (stereo not given)", "TGI", "> 100 µM"),
    ("Nc1nc(=S)c2ncn(C3OC(COP(=O)(O)O)C(O)C3O)c2[nH]1 (stereo not given)", "TGI", "> 100 µM"),
    ("COC(=O)C1CCC(=O)N1CN(C(C)=O)c1cccc(O)c1 (stereo not given)", "TGI", "> 100 µM"),
]

Please look at the following molecule next.
Qu. What value of TGI on MOLT-4 leukemia does O=C(O)CN(CCN(CC(=O)O)CC(=O)O)CC(=O)O.[Mn+2] have?
Ans. > 100 µM

---

The compounds listed here are annotated with their TGI.
- System: MCF7 breast
- Assay Overview: NCI tumour cell line growth inhibition, 48 h
Only the number, expressed in µM, is required.

Some solved cases for reference:
# Molecule, TGI [µM]
data = [
    ("Clc1ccc(C=Nc2ccc(Oc3ccc(Cl)cc3)c(Cl)c2)cc1", 88),
    ("COc1ccc(-c2nc3ccc(Cc4ccc5nc(-c6ccc(OC)cc6)[nH]c5c4)cc3[nH]2)cc1", 0.424),
    ("O=C1c2cc3c(cc2-c2c1c1ccc(Cl)cc1c(=O)n2C[C@H](O)CO)OCO3", 0.759),
    ("Oc1ccc(C(=C(Br)c2ccccc2)c2ccc(O)cc2)cc1", 12.4),
]

Please look at the following compound next.
Qu. Report TGI for COc1ccccc1CNCCN1C(=O)c2ccc3c4c(ccc(c24)C1=O)C(=O)N(CCNCc1ccccc1OC)C3=O please.
Ans. 0.492

---

The molecules listed here are annotated with their GI50.
- Test system: UACC-257 melanoma
- Assay Overview: NCI tumour cell line growth inhibition, 48 h

Some solved cases for reference:
# Molecule, GI50
data = [
    ("COc1ccc(-c2nc3ccc(Cc4ccc5nc(-c6ccc(OC)cc6)[nH]c5c4)cc3[nH]2)cc1", "1.5 µM"),
    ("Nc1nccc(-c2c(-c3ccc(F)cc3)nn3cc(C(F)(F)F)ccc23)n1", "> 25 µM"),
    ("OCC1CC[N-]CC1.OCC1CC[N-]CC1.[Cl][Pt+2]([Cl])([Cl])[Cl]", "31 µM"),
]

Please look at the following molecule next.
Qu. Report GI50 for O=C(c1cccs1)c1c(C(F)(F)F)n([O-])c2cc(Cl)c(Cl)cc2[n+]1=O please.
Ans. 1.86 µM

---

- Test system: OVCAR-5 ovarian
- Assay Overview: NCI tumour cell line growth inhibition, 48 h
The compounds listed here are annotated with their TGI.
Only the number, expressed in µM, is required.

Some solved cases for reference:
# Compound, Test Target, TGI [µM]
rows = [
    ("COc1ccc2c(C(=O)O)cc3ccccc3c2c1OC", "OVCAR-5 ovarian", 38.7),
    ("CC(C)(CN1CCCCC1)C(=O)/C=C/c1ccc(Br)cc1", "OVCAR-5 ovarian", 11.8),
    ("COc1cc(C(=O)/C=C/c2cccc(Nc3ccnc4cc(Cl)ccc34)c2)cc(OC)c1OC", "OVCAR-5 ovarian", 3.29),
    ("O=C(c1cccs1)c1c(C(F)(F)F)n([O-])c2cc(Cl)c(Cl)cc2[n+]1=O", "OVCAR-5 ovarian", 3.16),
    ("COc1cc(-c2nccc3[nH]c(-c4ccc5cc[nH]c5c4)nc23)cc(OC)c1OC", "OVCAR-5 ovarian", 12.1),
]

Please look at the following compound next.
Qu. Report TGI for COc1cc2nc(Cl)nc(NS(=O)(=O)c3cc4ccccc4s3)c2cc1OC please.
Ans. 50
